Where do the numbers come from? From patent US20250250357A1.

In this section we review reported OD450 nm values for a set of binders.
Target: T1, human MSLN-hFc protein (Acro, Cat. No. MSN-H5253) (human, UniProt Q13421 296-580)
T1 construct: bought protein; also called human MSLN full-length protein; not shown: human Fc (hFc) of the bought protein
T1 sequence (Q13421 other isoform, or with tags, fused parts or gaps limits assumed): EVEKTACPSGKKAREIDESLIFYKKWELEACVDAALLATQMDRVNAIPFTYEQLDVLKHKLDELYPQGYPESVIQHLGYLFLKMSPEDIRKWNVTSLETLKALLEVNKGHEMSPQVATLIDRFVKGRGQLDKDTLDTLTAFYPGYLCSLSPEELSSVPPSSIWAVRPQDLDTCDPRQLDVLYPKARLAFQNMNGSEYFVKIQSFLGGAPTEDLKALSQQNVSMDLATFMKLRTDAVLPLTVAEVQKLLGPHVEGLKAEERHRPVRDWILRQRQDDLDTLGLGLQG
Experiment: ELISA, coated human MSLN-hFc, antibody 1 nM
value kind: OD450 nm

binder="F2.23.12-H5 (scFv, not shown: small tags and cut ends, also called S009-F2.23.12 humanized VH2 + VL1) scFv: EVQLVQSGAEVKKPGASVKVSCKASGYTFTNYWMHWVRQAPGQGLEWMGNINPSNGGPYYNERFRSRVTMTVDKSTSTAYMELSSLRSEDTAVYYCARPYYGSSYGYFDYWGQGTTVTVSSGGGGSGGGGSGGGGSDIQMTQSPSSLSASVGDRVTITCKASQDINKYIAWYQQKPGKAPKLLIHYTSELQPGVPSRFSGSGSGTDFTFTISSLQPEDIATYYCLQYANPLRTFGGGTKVEIK" measured=0.22
binder="F2.23.12-H13 (scFv, not shown: small tags and cut ends, also called S009-F2.23.12 humanized VH4 + VL1) scFv: EVQLVQSGAEVKKPGASVKVSCKASGYTFTNYWMHWVRQAPGQGLEWMGNINPSQGGPYYNERFRSRVTMTVDKSTSTAYMELSSLRSEDTAVYYCARPYYGSSYGYFDYWGQGTTVTVSSGGGGSGGGGSGGGGSDIQMTQSPSSLSASVGDRVTITCKASQDINKYIAWYQQKPGKAPKLLIHYTSELQPGVPSRFSGSGSGTDFTFTISSLQPEDIATYYCLQYANPLRTFGGGTKVEIK" measured=0.16
binder="F2.23.12-H16 (scFv, not shown: small tags and cut ends, also called S009-F2.23.12 humanized VH4 + VL4) scFv: EVQLVQSGAEVKKPGASVKVSCKASGYTFTNYWMHWVRQAPGQGLEWMGNINPSQGGPYYNERFRSRVTMTVDKSTSTAYMELSSLRSEDTAVYYCARPYYGSSYGYFDYWGQGTTVTVSSGGGGSGGGGSGGGGSDIQMTQSPSSLSASVGDRVTITCKASQDINKYIAWYQHKPGKAPKLLIHYTSELQPGVPSRFSGSGSGRDYTFTISSLQPEDIATYYCLQYANPLRTFGGGTKVEIK" measured=0.13
